Parameter: nuclear beta-catenin stimulation. Scope: all listed entries.
Assay: stimulators of nuclear beta-catenin in C2C12, primary screen, imaging, WNT3A-conditioned medium, mouse C2C12, NPC library (AID 1117326); further: reference of the scale not given here
Conditions: at 10 µM, active compounds read high
Write down the numeric answer in % and omit the unit.

Previously resolved entries follow.
O=C(CCOCCOCCOCCOCCC(=O)Nc1c(I)cc(I)c(C(=O)O)c1I)Nc1c(I)cc(I)c(C(=O)O)c1I -0.1
CC(=O)[C@H]1CC[C@H]2[C@@H]3C[C@H](C)C4=CC(=O)CC[C@]4(C)[C@H]3[C@@H](O)C[C@]12C 0.3
C#Cc1ccc(-c2ccccc2F)cc1 -1.3

Proceed to the following item.
Kindly note the recorded nuclear beta-catenin stimulation for `CC[C@H](C)C(=O)O[C@H]1C[C@@H](C)C=C2C=C[C@H](C)[C@H](CC[C@@H]3C[C@@H](O)CC(=O)O3)[C@H]21` , which is 13.1

----------
Parameter: survival. Scope: all listed entries.
Experiment: hESC survival regulators, cell-based (AID 493140);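 further: cells exposed to compounds for four days before counting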
Conditions: human embryonic stem cell survival screen; active compounds read high
Reply with the value as a number alone.

Previously resolved entries follow.
molecule	survival
CCN(CC)C(=S)SSC(=S)N(CC)CC	16.9
O=C1C(CCS(=O)c2ccccc2)C(=O)N(c2ccccc2)N1c1ccccc1 (stereo unspecified)	40.2
O=C(c1ccccc1)c1ccc2n1CCC2C(=O)O (stereo unspecified)	2.17
CCS(=O)(=O)CCn1c([N+](=O)[O-])cnc1C	3.33
COc1ccccc1OCC(O)COC(N)=O (stereo unspecified)	33.1

Kindly note the recorded survival for COc1cc2nc(N(C)CCCNC(=O)C3CCCO3)nc(N)c2cc1OC (stereo unspecified) , which is 6.42

----------
Assay: inhibition of endothelial tube formation, primary screen, imaging, VEGF stimulated, CD31 staining, tube area, NPC library (AID 1117340)
Details: VEGF-stimulated ADSC/ECFC co-culture, at 10 µM, active compounds read high
measurementName: tube area decrease (%)
Write down the numeric answer in % and omit the unit.

Previously resolved entries follow.
compound	assayResult
COc1ccc(CC2c3cc(OC)c(OC)cc3CCN2CCC(=O)OCCCCCOC(=O)CCN2CCc3cc(OC)c(OC)cc3C2Cc2ccc(OC)c(OC)c2)cc1OC (stereo not given)	-3.5
Cc1ncc(C[n+]2csc(CCOP(=O)(O)O)c2C)c(N)n1	-8.2

Kindly note the recorded tube area decrease for `CN[C@@H]1[C@H](O)[C@H](NC)[C@H]2O[C@@]3(O)C(=O)C[C@@H](C)O[C@H]3O[C@@H]2[C@H]1O` , which is -8.4

Kindly note the recorded tube area decrease for CC1=C(CC(=O)O)c2cc(F)ccc2/C1=C\c1ccc(S(C)=O)cc1 (stereo not given) , which is 15.7

Kindly note the recorded tube area decrease for `CCCCCC=CCC=CCCCCCCCC(=O)OCC` , which is 7.8

Kindly note the recorded tube area decrease for `CCn1cc(C(=O)O)c(=O)c2cc(F)c(N3CCNCC3)cc21` , which is -4.6

Kindly note the recorded tube area decrease for `C#C[C@]1(O)CC[C@H]2[C@@H]3CCC4=CC(=O)CC[C@@H]4[C@H]3CC[C@@]21CC` , which is 0.1

Kindly note the recorded tube area decrease for `CCN1/C(=C/C=C/c2sc3ccccc3[n+]2CC)Sc2ccccc21` , which is -349

Kindly note the recorded tube area decrease for `CCCCCCCCOc1ccc(C(=O)c2ccccc2)c(O)c1` , which is -7.2

Kindly note the recorded tube area decrease for `OC1(c2ccc(Cl)cc2)CCNCC1` , which is 7.8
